Target: UniProtKB P42330
Sequence (P42330 1-323): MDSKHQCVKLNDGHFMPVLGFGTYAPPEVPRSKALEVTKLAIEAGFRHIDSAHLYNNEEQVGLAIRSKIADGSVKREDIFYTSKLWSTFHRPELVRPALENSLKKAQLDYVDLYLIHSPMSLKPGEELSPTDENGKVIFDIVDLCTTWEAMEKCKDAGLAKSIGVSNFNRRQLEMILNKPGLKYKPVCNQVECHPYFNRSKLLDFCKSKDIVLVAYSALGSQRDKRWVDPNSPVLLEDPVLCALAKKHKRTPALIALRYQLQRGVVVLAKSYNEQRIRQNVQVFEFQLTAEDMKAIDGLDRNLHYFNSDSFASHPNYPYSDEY
Assay: Purified AKR1C3 enzyme assay, [14C]-A'dione to testosterone, TLC based
Assay type: biochemical
Set-up: GST (N); made in house; host or cells: bacterial culture, IPTG induced (E. coli BL21-DE3 is named only for the crystallography preparation)
Settings: 10 μM inhibitor; purified AKR1C3 TLC based enzyme assay; read-out: AKR1C3 inhibition at 10 μM
Assay metric: inhibition at 10 µM (%)

{"columns": ["Compound", "Measured"],
 "data": [
  ["NC(=O)c1cc(O)cc2c(-c3ccc(C(F)(F)F)c(F)c3)cn(-c3ccc(O)cc3)c(=O)c12 [Compound 102B]", 0]
]}

(a) COc1ccc2c(=O)n(-c3ccc(CO)c(OC)c3)cc(-c3ccc(C(F)(F)F)cc3)c2c1
(b) COC(=N)c1cc(O)cc2c(-c3cc(F)c(F)c(F)c3)cn(-c3ccc(O)cc3)c(=O)c12
Q: Which entry shows the lesser value of inhibition at 10 µM here, a or b ? In your reply, give the label of the chosen option.
Result: a
(a: 0%, b: 20%)

* * *

Biological target: AKR1C3 (Homo sapiens, UniProt P42330)
Assay: Purified AKR1C3 enzyme assay, [14C]-A'dione to testosterone, TLC based
Assay type: biochemical
Parameters: GST (N); made in house; host or cells: bacterial culture, IPTG induced (E. coli BL21-DE3 is named only for the crystallography preparation)
Settings: read-out: % inhibition from control HSD-5 (10 uM)
Assay metric: inhibition at 10 µM (%)

{"columns": ["Compound", "inhibition at 10 µM, %"],
 "data": [
  ["CS(=O)(=O)c1ccc(-c2cn(-c3ccc(O)cc3)c(=O)c3ccc(O)cc23)cc1", 45]
]}

(A) O=C(O)c1ccc(-c2cn(-c3ccc(O)cc3)c(=O)c3ccc(O)cc23)cc1
(B) CNS(=O)(=O)c1ccc(-c2cn(-c3ccc(O)cc3)c(=O)c3ccc(O)cc23)cc1
(C) N#Cc1cc(O)cc2c(-c3ccc(C(F)(F)F)c(F)c3)cn(-c3ccc(O)cc3)c(=O)c12
(D) COc1ccc(-n2cc(-c3ccc(C(F)(F)F)cc3)c3cc(OC)ccc3c2=O)cc1
(E) N#Cc1cc(O)cc2c(-c3cc(F)c(F)c(F)c3)cn(-c3ccc(O)cc3)c(=O)c12
Q: Please put the entries in order of rising inhibition at 10 µM. Output spec: labels arranged per the requested ranking.
Result: D, C, B, A, E

* * *

Biological target: ER-α (Homo sapiens, UniProt P03372)
Sequence (P03372 311-547 limits assumed): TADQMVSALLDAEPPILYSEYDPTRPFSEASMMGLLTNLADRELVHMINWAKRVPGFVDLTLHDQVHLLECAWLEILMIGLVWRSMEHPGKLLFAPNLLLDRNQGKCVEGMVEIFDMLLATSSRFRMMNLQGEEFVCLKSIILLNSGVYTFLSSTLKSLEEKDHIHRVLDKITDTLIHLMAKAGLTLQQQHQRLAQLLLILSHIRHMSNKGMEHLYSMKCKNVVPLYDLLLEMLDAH
Assay: ER-α ligand binding domain competitive binding with [3H]Estradiol
Catalogue of Ki readings, one per entry.

A selection of reference data follows.
{"columns": ["Compound", "Target system", "Ki"],
 "data": [
  ["COc1ccc(-n2cc(-c3ccc(C(F)(F)F)cc3)c3cc(OC)ccc3c2=O)cc1 [Compound 35]", "ER-α (Homo sapiens, UniProt P03372)", "> 1510 nM"],
  ["CCOC(=O)/C=C/c1cn(-c2ccc(OC)cc2)c(=O)c2c(O)cc(OC)cc12 [Compound 15j]", "ER-α (Homo sapiens, UniProt P03372)", "> 1510 nM"],
  ["O=c1c2ccc(O)cc2c(-c2ccc(O)cc2)cn1-c1ccc(CO)cc1 [Compound 14]", "ER-α (Homo sapiens, UniProt P03372)", "> 1510 nM"],
  ["O=C(O)/C=C/c1cn(-c2ccc(O)cc2)c(=O)c2ccc(O)cc12 [Compound 15k]", "ER-α (Homo sapiens, UniProt P03372)", "> 151 nM"]
]}

Q: API: value(readout= Ki, system= ER-α (Homo sapiens, UniProt P03372), query= O=c1c2c(O)cc(O)cc2c(Br)cn1-c1cccc(O)c1 [ZW-315-047] )
Result: 503 nM
